- experimentalSystem: parental receptor binding domain (RBD) protein (amino acids 319 to 541 of the spike protein) with c-terminal … (SARS-CoV-2 (Wuhan-Hu-1), UniProt P0DTC2 319-541)
- assayComment: ELISA, RBD coated, IgG detected with anti-human Fc-HRP
readoutName: pEC50
Friendly reminder that pEC50 comes from taking -log10 of the concentration in mol/L.

Data request: Give the reported pEC50 for this binder. R2B1 chimeric bovine-human IgG1 antibody (antibody, V domains shown) VH: QVQLRESGPSLVKPSQTLSLTCTVSGFSLSDNNVGWVRQAPGKALEWLGVMHNDGNKGYNPALKSRLSITKDSSKSQVSLSLSSVTSEDTATYYCTRDNARCDSWTYDSCDTWYRNSWHVDAWGQGLLVTVSS VL: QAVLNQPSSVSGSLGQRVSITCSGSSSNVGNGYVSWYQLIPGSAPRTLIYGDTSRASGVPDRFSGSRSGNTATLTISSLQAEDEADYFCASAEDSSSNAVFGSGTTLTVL
Data returned: 9.28
